These data points were gathered from the supplement of paper PMC10201428.

Tested on: VchCAST RNA-guided transposition machinery (E. coli BL21(DE3) host, lacZ target)
Experiment: relative integration efficiency (T-RL orientation) vs wild-type transposon end (log2 (normalized fold change)); transposon end mutated: right end (5 bp flank + 75 bp right end); higher = more efficient transposition
Documented relative integration efficiency (log2) across a set of sequences

sequence data: ACATTTGTAAAAAAAACCATACGTTGATTTTACGAAACCATACGCTGAAATAATCACAACCATACATTGAAATTGCCTCTGATCATAGTCAGACCAACATTGCTACGACCCGTATTCGCACCGACAC
relative integration efficiency (log2): -6.97
--
sequence data: ACATTTGTTGATACAACCATAAAATGATAATTACACCCATAAATTGATAATTATACACAAACGCCCGGTCGCGGTAAGAGGATCATAGTCAGACCAACATTGCTACGACCCGTATTCGCACCGACAC
relative integration efficiency (log2): -1.49
--
sequence data: ACATTTGTTGATACAACCATAAAATGATAATTAATAATTATTTCACCCATAAATTGATAATTATCAACAAACGCCCGGTCGCGGTACTCTGATCATAGTCAGACCAACATTGCTACGACCCGTATTC
relative integration efficiency (log2): -2.91
